- Tested on: Bacillus subtilis
- assay_protocol: Antibacterial activity against Bacillus subtilis assessed as zone of inhibition at 500 ug/ml after 24 hrs by agar diffusion method
- Type: functional
- run_parameters: read-out: IZ
Binary classification by zone of inhibition at 500 µg/mL, with 4 mm as an inclusive lower bound for YES; all other cases are NO.

Determine whether measured zone of inhibition at 500 µg/mL meets or exceeds 4 mm for "Cc1ccc(-c2n[nH]cc2-c2nc(-c3ccc(Br)cc3)c(-c3ccc(Br)cc3)[nH]2)cc1" NO

Determine whether measured zone of inhibition at 500 µg/mL meets or exceeds 4 mm for "Clc1cc(-c2n[nH]cc2-c2nc(-c3ccc(Br)cc3)c(-c3ccc(Br)cc3)[nH]2)c(Cl)s1" NO

Determine whether measured zone of inhibition at 500 µg/mL meets or exceeds 4 mm for "Clc1ccc(-c2n[nH]cc2-c2nc(-c3ccccc3)c(-c3ccccc3)[nH]2)c(Cl)c1" YES

Determine whether measured zone of inhibition at 500 µg/mL meets or exceeds 4 mm for "Cc1ccc(-c2n[nH]cc2-c2nc(-c3ccccc3)c(-c3ccccc3)[nH]2)cc1" YES

Determine whether measured zone of inhibition at 500 µg/mL meets or exceeds 4 mm for "Clc1cc(-c2n[nH]cc2-c2nc(-c3ccccc3)c(-c3ccccc3)[nH]2)c(Cl)s1" NO
